test: Solubility (physicochemical properties)
measurement_context: solvents in which the compound is insoluble
parameter_measured: Solubility: Insoluble

Previously resolved entries follow.
record_smiles: CN1CCN(C(=O)Oc2ccccc2/C=C/C=O)CC1
result: Hexane, H2O
//
record_smiles: COCC(=O)Oc1ccccc1/C=C/C=O
result: Hexane
//
record_smiles: O=C/C=C/c1ccccc1OCc1ccncc1
result: Hexane, H2O
//
record_smiles: CN1CCN(C(=O)Oc2ccccc2/C=C/C=O)CC1.Cl
result: Hexane, acetone
//
record_smiles: Cl.O=C/C=C/c1ccccc1OCc1ccncc1
result: Hexane, acetone

Shift focus to the following entry.
Solubility: Insoluble reported for this molecule O=C/C=C/c1ccccc1OS(=O)(=O)c1ccccc1 : Hexane

---

For each of the compounds below, state its Cell distribution (%) G2-M.
Tested on: human colon carcinoma SW620 cells
test: Cell cycle analysis by flow cytometry (PI staining)
Format: cell-based
measurement_context: SW620, 20 μM, 48 hours
# number only, unit % dropped from output

Cell distribution (%) G2-M reported for this compound COCC(=O)Oc1ccccc1/C=C/C=O : 49.94

Cell distribution (%) G2-M reported for this compound O=C/C=C/c1ccccc1OCc1ccncc1 : 33.63

Cell distribution (%) G2-M reported for this compound O=C/C=C/c1ccccc1OS(=O)(=O)c1ccccc1 : 45.94

Cell distribution (%) G2-M reported for this compound Cl.O=C/C=C/c1ccccc1OCc1ccncc1 : 33.63

---

test: Solubility (physicochemical properties)
measurement_context: solvents in which the compound is soluble
parameter_measured: Solubility: Soluble

record_smiles: O=C/C=C/c1ccccc1OCc1ccncc1
parameter_measured: Solubility: Soluble
result: Alcohol, DMSO
--
record_smiles: CN1CCN(C(=O)Oc2ccccc2/C=C/C=O)CC1
parameter_measured: Solubility: Soluble
result: Alcohol, DMSO
--
record_smiles: CN1CCN(C(=O)Oc2ccccc2/C=C/C=O)CC1.Cl
parameter_measured: Solubility: Soluble
result: Alcohol, H2O
--
record_smiles: COCC(=O)Oc1ccccc1/C=C/C=O
parameter_measured: Solubility: Soluble
result: Alcohol, DMSO
--
record_smiles: Cl.O=C/C=C/c1ccccc1OCc1ccncc1
parameter_measured: Solubility: Soluble
result: Alcohol, H2O

Shift focus to the following entry.
Solubility: Soluble reported for this compound O=C/C=C/c1ccccc1OS(=O)(=O)c1ccccc1 : Alcohol, DMSO
